# assayTarget: UniProt:P00746
# Sequence (P00746 whole entry): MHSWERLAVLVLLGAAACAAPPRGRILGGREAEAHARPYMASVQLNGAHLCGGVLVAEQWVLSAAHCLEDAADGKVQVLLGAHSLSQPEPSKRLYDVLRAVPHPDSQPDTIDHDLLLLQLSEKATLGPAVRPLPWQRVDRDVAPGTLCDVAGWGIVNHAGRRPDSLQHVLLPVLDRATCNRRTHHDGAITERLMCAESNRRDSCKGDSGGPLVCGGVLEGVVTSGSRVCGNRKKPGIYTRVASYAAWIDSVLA
# assayRemarks: Enzyme Assay: Human factor D (purified from human serum, Complement Technology, Inc.) at 80 nM final concentration is incubated with test compound at various concentrations for 5 minutes at room temperature in 50 mM Tris, 1M NaCl, pH 7.5. A synthetic substrate Z-L-Lys-SBzl and DTNB (Ellman's reagent) are added to final concentrations of 100 µM each. The increase in color is recorded at OD405 nm in a microplate in kinetic mode over 30 minutes with 30 second time points in a […]. IC50 values are calculated by non-linear regression from the percentage of inhibition of complement factor D activity as a function of test compound concentration.
pIC50: −log10 of the molar value.
Below, each entry is listed alongside its reported pIC50.
quantityName: pIC50

substancesmiles=CC(=O)c1cn(CC(=O)N2[C@@H]3C[C@@H]3C[C@H]2C(=O)Nc2cccc(-c3ccccc3Cl)c2F)c2ccc(Oc3ncc(Br)cn3)cc12 quantityname=pIC50 result="> 6.00"
substancesmiles=CC(=O)c1cn(CC(=O)N2C[C@H](F)C[C@H]2C(=O)Nc2cccc(Br)n2)c2ccc(Oc3ncc(Br)cn3)cc12 quantityname=pIC50 result="> 6.00"
